- protocol: Ex vivo biodistribution in PC-3 tumor-bearing mice
- measurement.setup: male, NRG, mouse, whole blood, iv, total radioactivity, Biodistribution Blood Mean, 1 h post-injection, mice bearing PC-3 tumor xenografts, n = 4
Numbered stars: 1 amine (or outer) side, 2 acyl side, 3 side chain; on linkers, the order of the positions; unused ones are H or OH. Square brackets hold non-standard residues; d marks the D form. Peptide text beside a SMILES is read from it. * marks the point of attachment. DOTA = O=C(O)CN1CCN(CC(=O)O)CCN(CC(=O)*)CCN(CC(=O)O)CC1; Leuψ(CH2N)ThzNH2 = CC(C)C[C@@H](CN1CSC[C@H]1C(N)=O)N*; X1 = O=C(CN1CCC(N[*:1])CC1)[*:2]
result.type: tissue uptake at 1 h

compound	result.type	result
CC(C)C[C@@H](CN1CCC[C@H]1C(N)=O)NC(=O)[C@H](Cc1c[nH]cn1)NC(=O)CN(C)C(=O)[C@@H](NC(=O)[C@H](C)NC(=O)[C@H](Cc1c[nH]c2ccccc12)NC(=O)[C@H](CCC(N)=O)NC(=O)[C@@H](Cc1ccccc1)NC(=O)CN1CCC(NC(=O)CN2CCN(CC(=O)O)CCN(CC(=O)O)CCN(CC(=O)O)CC2)CC1)C(C)C [^68Ga-LW02045, metal not drawn]	tissue uptake at 1 h	0.43 %ID/g
CC(C)C[C@@H](CN1CSC[C@H]1C(N)=O)NC(=O)[C@H](Cc1c[nH]cn1)NC(=O)CNC(=O)[C@@H](NC(=O)[C@H](C)NC(=O)[C@H](Cc1c[nH]c2ccccc12)NC(=O)[C@H](CCC(N)=O)NC(=O)[C@@H](Cc1ccccc1)NC(=O)CN1CCC(NC(=O)CN2CCN(CC(=O)O)CCN(CC(=O)O)CCN(CC(=O)O)CC2)CC1)C(C)C [^68Ga-LW01045, metal not drawn]	tissue uptake at 1 h	0.76 %ID/g
CC(C)C[C@@H](CN1CSC[C@H]1C(N)=O)NC(=O)[C@H](Cc1c[nH]cn1)NC(=O)CNC(=O)[C@@H](NC(=O)[C@H](C)NC(=O)[C@H](Cc1c[nH]c2ccccc12)NC(=O)[C@H](CCC(N)=O)NC(=O)[C@@H](Cc1ccc2ccccc2c1)NC(=O)CN1CCC(NC(=O)CN2CCN(CC(=O)O)CCN(CC(=O)O)CCN(CC(=O)O)CC2)CC1)C(C)C [^68Ga-LW01059, metal not drawn]	tissue uptake at 1 h	2.16 %ID/g
CC(C)C[C@@H](CN1CSC[C@H]1C(N)=O)NC(=O)[C@H](Cc1c[nH]cn1)NC(=O)CNC(=O)[C@@H](NC(=O)[C@H](C)NC(=O)[C@H](Cc1c[nH]c2ccccc12)NC(=O)[C@H](Cc1c[nH]cn1)NC(=O)[C@@H](Cc1ccccc1)NC(=O)CN1CCC(NC(=O)CN2CCN(CC(=O)O)CCN(CC(=O)O)CCN(CC(=O)O)CC2)CC1)C(C)C [^68Ga-LW01102, metal not drawn] ({DOTA}-[X1][dF]HWAVGH-{Leuψ(CH2N)ThzNH2})	tissue uptake at 1 h	1.13 %ID/g

###

- protocol: Ex vivo biodistribution in PC-3 tumor-bearing mice
- measurement.setup: male, NRG, mouse, bone, iv, total radioactivity, Biodistribution Bone Mean, 1 h post-injection, mice bearing PC-3 tumor xenografts, n = 4
Numbered stars: 1 amine (or outer) side, 2 acyl side, 3 side chain; on linkers, the order of the positions; unused ones are H or OH. Square brackets hold non-standard residues; d marks the D form. Peptide text beside a SMILES is read from it. * marks the point of attachment. DOTA = O=C(O)CN1CCN(CC(=O)O)CCN(CC(=O)*)CCN(CC(=O)O)CC1; Leuψ(CH2N)ThzNH2 = CC(C)C[C@@H](CN1CSC[C@H]1C(N)=O)N*; X1 = O=C(CN1CCC(N[*:1])CC1)[*:2]

molecule	output.unit	tissue uptake at 1 h
CC(C)C[C@@H](CN1CSC[C@H]1C(N)=O)NC(=O)[C@H](Cc1c[nH]cn1)NC(=O)CNC(=O)[C@@H](NC(=O)[C@H](C)NC(=O)[C@H](Cc1c[nH]c2ccccc12)NC(=O)[C@H](CCC(N)=O)NC(=O)[C@@H](Cc1ccccc1)NC(=O)CN1CCC(NC(=O)CN2CCN(CC(=O)O)CCN(CC(=O)O)CCN(CC(=O)O)CC2)CC1)C(C)C [^68Ga-LW01045, metal not drawn]	%ID/g	0.19
CC(C)C[C@@H](CN1CCC[C@H]1C(N)=O)NC(=O)[C@H](Cc1c[nH]cn1)NC(=O)CN(C)C(=O)[C@@H](NC(=O)[C@H](C)NC(=O)[C@H](Cc1c[nH]c2ccccc12)NC(=O)[C@H](CCC(N)=O)NC(=O)[C@@H](Cc1ccccc1)NC(=O)CN1CCC(NC(=O)CN2CCN(CC(=O)O)CCN(CC(=O)O)CCN(CC(=O)O)CC2)CC1)C(C)C [^68Ga-LW02045, metal not drawn]	%ID/g	0.07
CC(C)C[C@@H](CN1CSC[C@H]1C(N)=O)NC(=O)[C@H](Cc1c[nH]cn1)NC(=O)CNC(=O)[C@@H](NC(=O)[C@H](C)NC(=O)[C@H](Cc1c[nH]c2ccccc12)NC(=O)[C@H](Cc1c[nH]cn1)NC(=O)[C@@H](Cc1ccccc1)NC(=O)CN1CCC(NC(=O)CN2CCN(CC(=O)O)CCN(CC(=O)O)CCN(CC(=O)O)CC2)CC1)C(C)C [^68Ga-LW01102, metal not drawn] ({DOTA}-[X1][dF]HWAVGH-{Leuψ(CH2N)ThzNH2})	%ID/g	0.13

###

Below, each of the molecules is paired with its reported tissue uptake at 1 h value.
- protocol: Ex vivo biodistribution in PC-3 tumor-bearing mice
- measurement.setup: male, NRG, mouse, kidneys, iv, total radioactivity, Biodistribution Kidneys Mean, 1 h post-injection, mice bearing PC-3 tumor xenografts, n = 4
Numbered stars: 1 amine (or outer) side, 2 acyl side, 3 side chain; on linkers, the order of the positions; unused ones are H or OH. Square brackets hold non-standard residues; d marks the D form. Peptide text beside a SMILES is read from it. * marks the point of attachment. DOTA = O=C(O)CN1CCN(CC(=O)O)CCN(CC(=O)*)CCN(CC(=O)O)CC1; Leuψ(CH2N)ThzNH2 = CC(C)C[C@@H](CN1CSC[C@H]1C(N)=O)N*; X1 = O=C(CN1CCC(N[*:1])CC1)[*:2]

molecule	tissue uptake at 1 h [%ID/g]
CC(C)C[C@H](NC(=O)[C@H](Cc1c[nH]cn1)NC(=O)CNC(=O)[C@@H](NC(=O)[C@H](C)NC(=O)[C@H](Cc1c[nH]c2ccccc12)NC(=O)[C@H](CCC(N)=O)NC(=O)[C@@H](Cc1ccc2ccccc2c1)NC(=O)CN1CCC(NC(=O)CN2CCN(CC(=O)O)CCN(CC(=O)O)CCN(CC(=O)O)CC2)CC1)C(C)C)C(=O)N1CSC[C@H]1C(N)=O [^68Ga-LW01029, metal not drawn]	4.73
CC(C)C[C@@H](CN1CSC[C@H]1C(N)=O)NC(=O)[C@H](Cc1c[nH]cn1)NC(=O)CNC(=O)[C@@H](NC(=O)[C@H](C)NC(=O)[C@H](Cc1c[nH]c2ccccc12)NC(=O)[C@H](Cc1c[nH]cn1)NC(=O)[C@@H](Cc1ccccc1)NC(=O)CN1CCC(NC(=O)CN2CCN(CC(=O)O)CCN(CC(=O)O)CCN(CC(=O)O)CC2)CC1)C(C)C [^68Ga-LW01102, metal not drawn] ({DOTA}-[X1][dF]HWAVGH-{Leuψ(CH2N)ThzNH2})	6.3
CC(C)C[C@@H](CN1CSC[C@H]1C(N)=O)NC(=O)[C@H](Cc1c[nH]cn1)NC(=O)CNC(=O)[C@@H](NC(=O)[C@H](C)NC(=O)[C@H](Cc1c[nH]c2ccccc12)NC(=O)[C@H](CCC(N)=O)NC(=O)[C@@H](Cc1ccc2ccccc2c1)NC(=O)CN1CCC(NC(=O)CN2CCN(CC(=O)O)CCN(CC(=O)O)CCN(CC(=O)O)CC2)CC1)C(C)C [^68Ga-LW01059, metal not drawn]	4.49
CC(C)C[C@@H](CN1CCC[C@H]1C(N)=O)NC(=O)[C@H](Cc1c[nH]cn1)NC(=O)CN(C)C(=O)[C@@H](NC(=O)[C@H](C)NC(=O)[C@H](Cc1c[nH]c2ccccc12)NC(=O)[C@H](CCC(N)=O)NC(=O)[C@@H](Cc1ccccc1)NC(=O)CN1CCC(NC(=O)CN2CCN(CC(=O)O)CCN(CC(=O)O)CCN(CC(=O)O)CC2)CC1)C(C)C [^68Ga-LW02045, metal not drawn]	2.54

###

- protocol: Ex vivo biodistribution in PC-3 tumor-bearing mice
- measurement.setup: male, NRG, mouse, fat, iv, total radioactivity, Biodistribution Fat Mean, 1 h post-injection, mice bearing PC-3 tumor xenografts, n = 4
Numbered stars: 1 amine (or outer) side, 2 acyl side, 3 side chain; on linkers, the order of the positions; unused ones are H or OH. Square brackets hold non-standard residues; d marks the D form. Peptide text beside a SMILES is read from it. * marks the point of attachment. DOTA = O=C(O)CN1CCN(CC(=O)O)CCN(CC(=O)*)CCN(CC(=O)O)CC1; Leuψ(CH2N)ThzNH2 = CC(C)C[C@@H](CN1CSC[C@H]1C(N)=O)N*; X1 = O=C(CN1CCC(N[*:1])CC1)[*:2]
Below, each of the compounds is paired with its reported tissue uptake at 1 h value.
result.type: tissue uptake at 1 h

compound	result.type	result
CC(C)C[C@@H](CN1CSC[C@H]1C(N)=O)NC(=O)[C@H](Cc1c[nH]cn1)NC(=O)CNC(=O)[C@@H](NC(=O)[C@H](C)NC(=O)[C@H](Cc1c[nH]c2ccccc12)NC(=O)[C@H](CCC(N)=O)NC(=O)[C@@H](Cc1ccccc1)NC(=O)CN1CCC(NC(=O)CN2CCN(CC(=O)O)CCN(CC(=O)O)CCN(CC(=O)O)CC2)CC1)C(C)C [^68Ga-LW01045, metal not drawn]	tissue uptake at 1 h	0.09 %ID/g
CC(C)C[C@@H](CN1CSC[C@H]1C(N)=O)NC(=O)[C@H](Cc1cnc[nH]1)NC(=O)CN(C)C(=O)[C@@H](NC(=O)[C@H](C)NC(=O)[C@H](Cc1c[nH]c2ccccc12)NC(=O)[C@H](CCC(N)=O)NC(=O)[C@@H](Cc1ccccc1)NC(=O)CN1CCC(NC(=O)CN2CCN(CC(=O)O)CCN(CC(=O)O)CCN(CC(=O)O)CC2)CC1)C(C)C [^68Ga-LW01090, metal not drawn]	tissue uptake at 1 h	0.11 %ID/g
CC(C)C[C@@H](CN1CCC[C@H]1C(N)=O)NC(=O)[C@H](Cc1c[nH]cn1)NC(=O)CN(C)C(=O)[C@@H](NC(=O)[C@H](C)NC(=O)[C@H](Cc1c[nH]c2ccccc12)NC(=O)[C@H](CCC(N)=O)NC(=O)[C@@H](Cc1ccccc1)NC(=O)CN1CCC(NC(=O)CN2CCN(CC(=O)O)CCN(CC(=O)O)CCN(CC(=O)O)CC2)CC1)C(C)C [^68Ga-LW02045, metal not drawn]	tissue uptake at 1 h	0.03 %ID/g
CC(C)C[C@@H](CN1CSC[C@H]1C(N)=O)NC(=O)[C@H](Cc1c[nH]cn1)NC(=O)CNC(=O)[C@@H](NC(=O)[C@H](C)NC(=O)[C@H](Cc1c[nH]c2ccccc12)NC(=O)[C@H](Cc1c[nH]cn1)NC(=O)[C@@H](Cc1ccccc1)NC(=O)CN1CCC(NC(=O)CN2CCN(CC(=O)O)CCN(CC(=O)O)CCN(CC(=O)O)CC2)CC1)C(C)C [^68Ga-LW01102, metal not drawn] ({DOTA}-[X1][dF]HWAVGH-{Leuψ(CH2N)ThzNH2})	tissue uptake at 1 h	0.09 %ID/g
CC(C)C[C@H](NC(=O)[C@H](Cc1c[nH]cn1)NC(=O)CNC(=O)[C@@H](NC(=O)[C@H](C)NC(=O)[C@H](Cc1c[nH]c2ccccc12)NC(=O)[C@H](CCC(N)=O)NC(=O)[C@@H](Cc1ccc2ccccc2c1)NC(=O)CN1CCC(NC(=O)CN2CCN(CC(=O)O)CCN(CC(=O)O)CCN(CC(=O)O)CC2)CC1)C(C)C)C(=O)N1CSC[C@H]1C(N)=O [^68Ga-LW01029, metal not drawn]	tissue uptake at 1 h	0.18 %ID/g
CC(C)C[C@H](NC(=O)[C@H](Cc1c[nH]cn1)NC(=O)CNC(=O)[C@@H](NC(=O)[C@H](C)NC(=O)[C@H](Cc1c[nH]c2ccccc12)NC(=O)[C@H](CCC(N)=O)NC(=O)[C@@H](Cc1ccccc1)NC(=O)CN1CCC(NC(=O)CN2CCN(CC(=O)O)CCN(CC(=O)O)CCN(CC(=O)O)CC2)CC1)C(C)C)C(=O)N1CSC[C@H]1C(N)=O [^68Ga-LW01025, metal not drawn]	tissue uptake at 1 h	0.09 %ID/g
CC(C)C[C@@H](CN1CSC[C@H]1C(N)=O)NC(=O)[C@H](Cc1c[nH]cn1)NC(=O)CNC(=O)[C@@H](NC(=O)[C@H](C)NC(=O)[C@H](Cc1c[nH]c2ccccc12)NC(=O)[C@H](CCC(N)=O)NC(=O)[C@@H](Cc1ccc2ccccc2c1)NC(=O)CN1CCC(NC(=O)CN2CCN(CC(=O)O)CCN(CC(=O)O)CCN(CC(=O)O)CC2)CC1)C(C)C [^68Ga-LW01059, metal not drawn]	tissue uptake at 1 h	0.19 %ID/g
